# Tested on: 786-0 renal
# test: NCI-60 one-dose screen, 48 h (100 = growth as untreated, 0 = no growth, -100 = all killed)
# assaySetup: 10 µM unless noted
This is part of a sample that, as a whole, favours compounds with a hit. Of some 83,000 tested, about 20% had one in any assay.
Decision: growth compared against 70%; not below it gives True, below it gives False.

sampleSmiles | label
O=CNc1cc(Cl)cc(Cl)c1 | True
Cc1c2c(cc[n+]1Cc1ccccc1)c1ccc(OCc3ccccc3)cc1n2Cc1ccccc1 | False
Cc1cc(NC(=O)c2cnc(N3CCN(CCOCCOCCOCCOCCC(=O)N[C@H](C(=O)N4C[C@H](O)C[C@H]4C(=O)N[C@@H](C)c4ccc(-c5scnc5C)cc4)C(C)(C)C)CC3)cn2)c2ncccc2c1 | False
CS(=O)(=O)c1ccc(-c2cc(-c3nnc(SCC(=O)Nc4ccc(C(=O)/C=C/c5ccc(Cl)cc5)cc4)n3-c3ccccc3)c3ccccc3n2)cc1 | True
COc1cccc(CCC(=O)c2cc3c(N)c(C(=O)Nc4cccc(Cl)c4C)sc3nc2C)c1 | False
COc1ccc2c(c1)c(CC(=O)NCCOCCOCC(=O)Nc1ccc(OC)c(C(N)=O)c1O)c(C)n2C(=O)c1ccc(Cl)cc1 | True
COc1ccc(/C=N/NC(=O)c2cccc3cc[nH]c23)cc1O | False
NC(=O)CN1CCN(c2ccccc2Cl)CC1 | True
